Overview of reported EC50, CRE-luciferase assay across a group of binders:
# tgt: T1, human amylin receptor (AMY3) on CHO-K1/Ga15/AMY3 cells (human, UniProt P30988 25-474; O60896 24-148)
# T1 sequence (looked up) 1: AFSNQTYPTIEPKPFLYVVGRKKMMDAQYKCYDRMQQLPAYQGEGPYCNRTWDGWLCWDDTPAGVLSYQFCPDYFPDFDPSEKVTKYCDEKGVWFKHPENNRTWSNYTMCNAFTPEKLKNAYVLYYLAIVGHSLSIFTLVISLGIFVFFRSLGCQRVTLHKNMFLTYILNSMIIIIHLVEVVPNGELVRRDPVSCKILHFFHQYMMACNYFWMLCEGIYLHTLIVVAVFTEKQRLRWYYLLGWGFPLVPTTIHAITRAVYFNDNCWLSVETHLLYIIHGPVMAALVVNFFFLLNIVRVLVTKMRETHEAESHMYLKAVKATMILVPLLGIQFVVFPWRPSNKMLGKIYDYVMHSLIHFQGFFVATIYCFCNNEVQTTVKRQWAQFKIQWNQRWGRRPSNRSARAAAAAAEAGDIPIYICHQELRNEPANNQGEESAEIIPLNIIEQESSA
# T1 sequence (looked up) 2: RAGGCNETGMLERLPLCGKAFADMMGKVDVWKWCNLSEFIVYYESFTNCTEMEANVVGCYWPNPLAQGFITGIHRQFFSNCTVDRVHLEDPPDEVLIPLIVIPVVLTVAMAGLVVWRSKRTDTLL
# assayMethodText: cell-based or functional assay
*1 amine or outer side, *2 acyl side, *3 side chain or, on linkers, in order; H or OH if unused. Bridges are numbered along the chain shown (N, C = ends). Where no end group is shown, it is not given here. Side-chain parts run from the residue outwards. [ ]: non-standard residue; d: D form. The star is where a group is joined. C20 diacid = O=C(O)CCCCCCCCCCCCCCCCCCC(=O)*; C18 diacid = O=C(O)CCCCCCCCCCCCCCCCC(=O)*; γGlu = O=C(O)[C@H](CCC(=O)[*:2])N[*:1]; βAsp = O=C(O)[C@H](CC(=O)[*:2])N[*:1]; Hyp = O=C(O)[C@@H]1C[C@@H](O)CN1; Aad = N[C@@H](CCCC(=O)O)C(=O)O; αMeP = C[C@@]1(C(=O)O)CCCN1; Orn = NCCC[C@H](N)C(=O)O; Dap = NC[C@H](N)C(=O)O; AEEA = NCCOCCOCC(=O)O
Don't forget the unit after the value.

Past entries and their recorded results:
# binder, EC50, CRE-luciferase assay
rows = [
    ("{C20 diacid}-D[AEEA][AEEA]KCNTATCATQRLADFLRHSSNNLKPILPPTNVGSNT[Hyp]-NH2 (disulfide 5-10 (inferred)) [PD181]", "0.022 nM"),
    ("RCNTATCATQRLADFLRHSSK([γGlu-C18 diacid])NLGPILPPTNVGSNT[Hyp]-NH2 (disulfide 2-7 (inferred)) [PD092]", "0.016 nM"),
    ("RCNTATCATQRLADFLRHSK([AEEA-γGlu-C18 diacid])NNLGPILPPTNVGSNT[Hyp]-NH2 (disulfide 2-7 (inferred)) [PD117]", "0.014 nM"),
    ("CNTATCATQRLADFLRHSSNNLK([γGlu-C20 diacid])PILPPTNVGSNTP-NH2 (disulfide 1-6 (inferred)) [PD050]", "0.098 nM"),
    ("RCNTATCATQRLADFLRHSSNNLK([γGlu-C20 diacid])PILPPTNVGSNT[αMeP]-NH2 (disulfide 2-7 (inferred)) [PD064]", "0.055 nM"),
    ("ECNTATCATQRLADFLRHSSNNLK([γGlu-C20 diacid])PILPPTNVGSNT[Hyp]-NH2 (disulfide 2-7 (inferred)) [PD080]", "0.11 nM"),
    ("{C20 diacid}-D[AEEA][AEEA]KCNTATCATQRLADFLRHSSNNLKPILPPTNVGSNTP-NH2 (disulfide 5-10 (inferred)) [PD193]", "0.074 nM"),
    ("{C20 diacid-γGlu}-KCNTATCATQRLADFLRHSSNNLGPILPPTNVGSNT[Hyp]-NH2 (disulfide 2-7 (inferred)) [PD069]", "0.039 nM"),
]

In: Which EC50, CRE-luciferase assay is listed for {C20 diacid-γGlu}-KCNTATCATQRLADFLRHSSNNL[Dap]PILPPTNVGSNTP-NH2 (disulfide 2-7 (inferred)) [PD168] ?
Out: 0.041 nM

In: Given the entry RCNTATCATQRLADFLRHSK([γGlu-C20 diacid])NNLGPILPPTNVGSNT[Hyp]-NH2 (disulfide 2-7 (inferred)) [PD094] , report its measured EC50, CRE-luciferase assay.
Out: 0.034 nM

In: Look up EC50, CRE-luciferase assay for this binder: RCNTATCATQRLADFLRHK([γGlu-C18 diacid])SNNLGPILPPTNVGSNT[Hyp]-NH2 (disulfide 2-7 (inferred)) [PD100]
Out: 0.06 nM

In: Bench note: what EC50, CRE-luciferase assay did RCNTATCATQRLA[Aad]FLRHSSNNLK([γGlu-C20 diacid])PILPPTNVGSNTP-NH2 (disulfide 2-7 (inferred)) [PD043] show?
Out: 1.13 nM

In: Fill in the blank: the reported EC50, CRE-luciferase assay of RCNTATCATQRLADFLRHSSK([AEEA-AEEA-γGlu-C18 diacid])NLGPILPPTNVGSNT[Hyp]-NH2 (disulfide 2-7 (inferred)) [PD093] is ____.
Out: 0.019 nM

In: Which EC50, CRE-luciferase assay is reported for this binder? K([γGlu-C20 diacid])CNTATCATQRLADFLRHSSNNLKPILPPTNVGSNT[Hyp]-NH2 (disulfide 2-7 (inferred)) [PD072]
Out: 0.027 nM

In: Which measured EC50, CRE-luciferase assay value corresponds to RCNTATCATQRLADFLRHSSNNLGK([AEEA-AEEA-γGlu-C18 diacid])ILPPTNVGSNT[Hyp]-NH2 (disulfide 2-7 (inferred)) [PD105] ?
Out: 0.033 nM

In: Quick one: EC50, CRE-luciferase assay for RCNTATCATQRLADFLRHSSNNK([AEEA-AEEA-γGlu-C20 diacid])GPILPPTNVGSNT[Hyp]-NH2 (disulfide 2-7 (inferred)) [PD083] ?
Out: 0.037 nM

In: Item {C20 diacid-βAsp-AEEA-AEEA}-KCNTATCATQRLADFLRHSSNNLKPILPPTNVGSNT[Hyp]-NH2 (disulfide 2-7 (inferred)) [PD183] has what recorded EC50, CRE-luciferase assay?
Out: 0.04 nM

In: Need EC50, CRE-luciferase assay of [Orn]CNTATCATQRLADFLRHSSNNLK([γGlu-C20 diacid])PILPPTNVGSNT[Hyp]-NH2 (disulfide 2-7 (inferred)) [PD075] , thanks.
Out: 0.048 nM
